Field: CC100 (100% cytotoxic concentration). Provide a value for each of the compounds that follow.
Test system: BHK-21 cells
Assay: Cytotoxicity CC100 in BHK-21 cells (6 days)
One number for each entry, in µg/mL.

These solved cases illustrate the format of a correct answer.
compound	uom	CC100 (100% cytotoxic concentration)
CC(C)c1cc2c(cc1O)[C@@]1(C)CCC[C@](C)(C(=O)O)[C@@H]1CC2=O [Compound 23b]	µg/mL	12.5
CC(C)c1cc2c(cc1O)[C@@]1(C)CCC[C@@](C)(CO)[C@@H]1CC2 [Compound 20a, 18-hydroxyferruginol]	µg/mL	50
COC(=O)[C@@]1(C)CCC[C@]2(C)c3cc(OC(C)=O)c(C(C)C)cc3C(=O)C[C@@H]12 [Compound 17b]	µg/mL	25

Give the measured CC100 (100% cytotoxic concentration) of COC(=O)[C@@]1(C)CCC[C@]2(C)c3cc(OC(C)=O)c(C(C)C)cc3CC[C@@H]12 [Compound 16b] . 25
